Where these numbers come from: PubChem BioAssay AID2060506

Test system: 598228-144-R-J1-PDC complex spheroid viability
Experiment: Anticancer human tumor 598228-144-R-J1-PDC patient-derived serous endometrial adenocarcinoma cell line growth inhibition [GQUAD]; active = viability on the fitted dose curve at most 10% of control; inactive = the rest
Settings: second compound 0.316 µM; first compound 1 µM
Entry note: the call must match one of 1.0 (active), 0.0 (inactive)

CC(C)(O)C1CCC(Nc2ccc3ncc(-c4cccc(C(F)(F)F)c4)n3n2)CC1 (stereo not given) + Cc1cnc(CNC(=O)c2c(=O)c3ccc(N4CCCN(C)CC4)nc3n3c2sc2ccccc23)cn1 | 0.0
Cc1cccc(N(C)C(=O)C2C(O)CCN2c2nc(C)cc(C(F)(F)F)c2C#N)c1 (stereo not given) + CN(C)c1ccc(Nc2c3ccc(NC(=O)CCN4CCCC4)cc3nc3cc(NC(=O)CCN4CCCC4)ccc23)cc1 | 0.0
CC1COCCN1c1cc(C2(S(C)(=N)=O)CC2)nc(-c2ccnc3[nH]ccc23)n1 (stereo not given) + Cc1cnc(CNC(=O)c2c(=O)c3ccc(N4CCCN(C)CC4)nc3n3c2sc2ccccc23)cn1 | 0.0

Could you kindly confirm the outcome this assay logged for O=C(NO)c1cnc(N2CCN(S(=O)(=O)c3ccc4ccccc4c3)CC2)nc1 + Cc1[nH]c2ccc(F)cc2c1-c1nc2c3cccnc3c3ncccc3c2[nH]1 ?
1.0

// outcome(item) with item = COc1ncnc(C2CC2)c1-c1ncc2cnn(Cc3ccc(-c4nc(C(F)(F)F)cn4C(C)C)cc3)c2n1 + Cc1[nH]c2ccc(F)cc2c1-c1nc2c3cccnc3c3ncccc3c2[nH]1
0.0

###

Tested on: 598228-144-R-J1-PDC complex spheroid viability
Experiment: Anticancer human tumor 598228-144-R-J1-PDC cell line growth inhibition [GQUAD];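 also: spheroids exposed to the agents for one week before reading; percent of vehicle DMSO control viability so 100% = untreated growth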
Conditions: second compound 0.0316 µM; first compound 10 µM; active compounds read low
Rule for this label: 1.0 means viability, T/C is less than 50%; 0.0 means viability, T/C is at least 50%.

COc1ncnc(C2CC2)c1-c1ncc2cnn(Cc3ccc(-c4nc(C(F)(F)F)cn4C(C)C)cc3)c2n1 + CN(C)c1ccc(Nc2c3ccc(NC(=O)CCN4CCCC4)cc3nc3cc(NC(=O)CCN4CCCC4)ccc23)cc1 | 0.0
CC(=O)O[C@H]1C(=O)[C@@]2(C)[C@H]([C@H](OC(=O)c3ccccc3)[C@]3(O)C[C@H](OC(=O)[C@H](O)[C@@H](NC(=O)c4ccccc4)c4ccccc4)C(C)=C1C3(C)C)[C@]1(OC(C)=O)CO[C@@H]1C[C@@H]2O + CN(C)c1ccc(Nc2c3ccc(NC(=O)CCN4CCCC4)cc3nc3cc(NC(=O)CCN4CCCC4)ccc23)cc1 | 0.0
COc1ncnc(C2CC2)c1-c1ncc2cnn(Cc3ccc(-c4nc(C(F)(F)F)cn4C(C)C)cc3)c2n1 + Cc1cnc(CNC(=O)c2c(=O)c3ccc(N4CCCN(C)CC4)nc3n3c2sc2ccccc23)cn1 | 0.0
CC1COCCN1c1cc(C2(O)CC3CCC(C2)O3)c2cnn(-c3ccn[nH]3)c2n1 (centres undefined) + Cc1cnc(CNC(=O)c2c(=O)c3ccc(N4CCCN(C)CC4)nc3n3c2sc2ccccc23)cn1 | 1.0

Determine whether this compound shows viability, T/C lower than 50% (ties excluded): COc1cc(C2c3cc4c(cc3C(OC3OC5COC(C)OC5C(O)C3O)C3COC(=O)C23)OCO4)cc(OC)c1O (centres undefined) + Cc1cnc(CNC(=O)c2c(=O)c3ccc(N4CCCN(C)CC4)nc3n3c2sc2ccccc23)cn1
1.0

viability, T/C under 50%? Item: Cc1cccc(N(C)C(=O)C2C(O)CCN2c2nc(C)cc(C(F)(F)F)c2C#N)c1 (centres undefined) + CN(C)c1ccc(Nc2c3ccc(NC(=O)CCN4CCCC4)cc3nc3cc(NC(=O)CCN4CCCC4)ccc23)cc1
0.0

Item Nc1ccn(C2OC(CO)C(O)C2(F)F)c(=O)n1 (centres undefined) + Cc1[nH]c2ccc(F)cc2c1-c1nc2c3cccnc3c3ncccc3c2[nH]1 : viability, T/C beneath 50%, strictly?
1.0

In the record for CC(=O)O[C@H]1C(=O)[C@@]2(C)[C@H]([C@H](OC(=O)c3ccccc3)[C@]3(O)C[C@H](OC(=O)[C@H](O)[C@@H](NC(=O)c4ccccc4)c4ccccc4)C(C)=C1C3(C)C)[C@]1(OC(C)=O)CO[C@@H]1C[C@@H]2O + Cc1cnc(CNC(=O)c2c(=O)c3ccc(N4CCCN(C)CC4)nc3n3c2sc2ccccc23)cn1 , is viability, T/C less than 50%?
1.0

In the record for O=c1[nH]cc(F)c(=O)[nH]1 + CN(C)c1ccc(Nc2c3ccc(NC(=O)CCN4CCCC4)cc3nc3cc(NC(=O)CCN4CCCC4)ccc23)cc1 , is viability, T/C less than 50%?
0.0

###

Tested on: 598228-144-R-J1-PDC complex spheroid viability
Assay: Anticancer human tumor 598228-144-R-J1-PDC cell line growth inhibition [GQUAD];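 also: spheroids exposed to the agents for one week before reading; percent of vehicle DMSO control viability so 100% = untreated growth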
Conditions: second compound 0.1 µM; first compound 3.16 µM; active compounds read low
TEST_READOUT: viability, T/C

Take a look at these entries with their results.
CC(C)n1c(=O)n(C)c2cnc3cc(F)c(-c4ccc(OCCCN5CCCCC5)nc4)cc3c21 + CN(C)c1ccc(Nc2c3ccc(NC(=O)CCN4CCCC4)cc3nc3cc(NC(=O)CCN4CCCC4)ccc23)cc1 | 86.8%
CC(C)(O)C1CCC(Nc2ccc3ncc(-c4cccc(C(F)(F)F)c4)n3n2)CC1 (stereo not given) + CN(C)c1ccc(Nc2c3ccc(NC(=O)CCN4CCCC4)cc3nc3cc(NC(=O)CCN4CCCC4)ccc23)cc1 | 26.6%
CC(=O)O[C@H]1C(=O)[C@@]2(C)[C@H]([C@H](OC(=O)c3ccccc3)[C@]3(O)C[C@H](OC(=O)[C@H](O)[C@@H](NC(=O)c4ccccc4)c4ccccc4)C(C)=C1C3(C)C)[C@]1(OC(C)=O)CO[C@@H]1C[C@@H]2O + CN(C)c1ccc(Nc2c3ccc(NC(=O)CCN4CCCC4)cc3nc3cc(NC(=O)CCN4CCCC4)ccc23)cc1 | 33.7%
COc1cc(C2c3cc4c(cc3C(OC3OC5COC(C)OC5C(O)C3O)C3COC(=O)C23)OCO4)cc(OC)c1O (stereo not given) + CN(C)c1ccc(Nc2c3ccc(NC(=O)CCN4CCCC4)cc3nc3cc(NC(=O)CCN4CCCC4)ccc23)cc1 | 61.5%
COc1ccc([C@@H](O)c2cc(-c3ncnc4cc(N5CCOCC5)ccc34)c(F)cc2Cl)nn1 + CN(C)c1ccc(Nc2c3ccc(NC(=O)CCN4CCCC4)cc3nc3cc(NC(=O)CCN4CCCC4)ccc23)cc1 | 52.2%
CC(=O)O[C@H]1C(=O)[C@@]2(C)[C@H]([C@H](OC(=O)c3ccccc3)[C@]3(O)C[C@H](OC(=O)[C@H](O)[C@@H](NC(=O)c4ccccc4)c4ccccc4)C(C)=C1C3(C)C)[C@]1(OC(C)=O)CO[C@@H]1C[C@@H]2O + Cc1[nH]c2ccc(F)cc2c1-c1nc2c3cccnc3c3ncccc3c2[nH]1 | 40.6%
COc1ccc([C@@H](O)c2cc(-c3ncnc4cc(N5CCOCC5)ccc34)c(F)cc2Cl)nn1 + Cc1[nH]c2ccc(F)cc2c1-c1nc2c3cccnc3c3ncccc3c2[nH]1 | 35%
C=CCn1c(=O)c2cnc(Nc3ccc(N4CCN(C)CC4)cc3)nc2n1-c1cccc(C(C)(C)O)n1 + Cc1cnc(CNC(=O)c2c(=O)c3ccc(N4CCCN(C)CC4)nc3n3c2sc2ccccc23)cn1 | 43.7%
CC1COCCN1c1cc(-c2ccnn2C)c2ccnc(-c3ccn[nH]3)c2n1 (stereo not given) + CN(C)c1ccc(Nc2c3ccc(NC(=O)CCN4CCCC4)cc3nc3cc(NC(=O)CCN4CCCC4)ccc23)cc1 | 42.4%

// next item, viability, T/C requested
GET /values?item= CC1COCCN1c1cc(C2(O)CC3CCC(C2)O3)c2cnn(-c3ccn[nH]3)c2n1 (stereo not given) + Cc1[nH]c2ccc(F)cc2c1-c1nc2c3cccnc3c3ncccc3c2[nH]1 &system= 598228-144-R-J1-PDC complex spheroid viability returns viability, T/C: 31.5%

###

Tested on: 598228-144-R-J1-PDC complex spheroid viability
Assay: Anticancer human tumor 598228-144-R-J1-PDC cell line growth inhibition [GQUAD]; active = viability on the fitted dose curve at most 10% of control; inactive = the rest;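 also: spheroids exposed to the agents for one week before reading; percent of vehicle DMSO control viability so 100% = untreated growth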
Details: second compound 0.0316 µM; first compound 0.316 µM
Text: DNA G-quadruplex Stabilizer Agents in Combinations in Complex Spheroids A high-throughput screen of multi-cell type tumor spheroids was designed to identify active combinations of DNA G-quadruplex stabilizer agents and targeted small molecules. […] Compounds. […] If the clinical Cmax for an agent had not been determined, the highest concentration tested was 10 microM. […]
Write down one outcome, taken from yes (1) (active), no (0) (inactive)

A selection of reference data follows.
CC1COCCN1c1cc(-c2ccnn2C)c2ccnc(-c3ccn[nH]3)c2n1 (stereo not given) + Cc1cnc(CNC(=O)c2c(=O)c3ccc(N4CCCN(C)CC4)nc3n3c2sc2ccccc23)cn1 | no (0)
CC(C)n1c(=O)n(C)c2cnc3cc(F)c(-c4ccc(OCCCN5CCCCC5)nc4)cc3c21 + Cc1cnc(CNC(=O)c2c(=O)c3ccc(N4CCCN(C)CC4)nc3n3c2sc2ccccc23)cn1 | no (0)
Cc1[nH]c2ccccc2c1CCNCc1ccc(/C=C/C(=O)NO)cc1 + Cc1[nH]c2ccc(F)cc2c1-c1nc2c3cccnc3c3ncccc3c2[nH]1 | yes (1)
CC(C)(O)C1CCC(Nc2ccc3ncc(-c4cccc(C(F)(F)F)c4)n3n2)CC1 (stereo not given) + CN(C)c1ccc(Nc2c3ccc(NC(=O)CCN4CCCC4)cc3nc3cc(NC(=O)CCN4CCCC4)ccc23)cc1 | no (0)

Continue with the next molecule.
Hey, what did the test say about O=C(c1cc(Cc2n[nH]c(=O)c3ccccc23)ccc1F)N1CCN(C(=O)C2CC2)CC1 + CN(C)c1ccc(Nc2c3ccc(NC(=O)CCN4CCCC4)cc3nc3cc(NC(=O)CCN4CCCC4)ccc23)cc1 ?
no (0)
